Below is a list of entries, each paired with its recorded PBM binding z-score value.
# Test system: FXR:RXRa (NR concentration 270 nM, RXRa partner concentration 90 nM)
# method.summary: PBM binding z-score (relative to random genomic background probes); higher = stronger binding; sequences stand for … in GC…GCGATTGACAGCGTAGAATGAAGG
Answer field: number only, no words.

Example entries begin here.
entry.sequence: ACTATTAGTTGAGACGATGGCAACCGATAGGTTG
observable: PBM binding z-score
measured.number: -0.242
//
entry.sequence: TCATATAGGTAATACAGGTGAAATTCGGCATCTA
observable: PBM binding z-score
measured.number: 1.05
//
entry.sequence: GATACAGGGTCAGCTAGAGGCCAGCGTATGGAAA
observable: PBM binding z-score
measured.number: 4.35
//
entry.sequence: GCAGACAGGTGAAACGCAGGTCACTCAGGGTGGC
observable: PBM binding z-score
measured.number: 1.55
//
entry.sequence: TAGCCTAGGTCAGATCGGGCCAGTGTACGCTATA
observable: PBM binding z-score
measured.number: 1.85

Value of PBM binding z-score reported for the sequence CCGAGTAGGGTATGGGGCATTCAGGCAACGGTGA is -0.164

The reported PBM binding z-score of the sequence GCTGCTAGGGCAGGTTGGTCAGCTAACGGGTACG was -0.531

The reported PBM binding z-score of the sequence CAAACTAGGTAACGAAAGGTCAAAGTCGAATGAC was 4.96

get_value(item= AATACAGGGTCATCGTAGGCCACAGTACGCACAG , readout=PBM binding z-score) returns 7.48

For record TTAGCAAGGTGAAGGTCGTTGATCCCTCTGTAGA the listed PBM binding z-score is 1.98

Value of measured PBM binding z-score for the entry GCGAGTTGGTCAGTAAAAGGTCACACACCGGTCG : 3.43

Record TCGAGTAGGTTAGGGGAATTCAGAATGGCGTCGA , field PBM binding z-score: -0.0318

Entry CTTACTGGGCCACGAAAGGTCATTGATTCAGTGA , PBM binding z-score reported as 5.51

// PBM binding z-score lookup, sequence = AGCTCTAGGTAAAGATAGTTCAGTGAATGCAAAT , result: -0.108
